Please find below log10 IC50 measurements for UniProtKB P00921, combined from several publications.
The base-10 logarithm of IC50, taken with IC50 in µM, is what appears here.

// worked examples, log10 IC50 included
- NS(=O)(=O)c1ccc(NCc2ccc(C(=O)NCCNC(=O)/C=C/c3ccc(-c4ccccc4C(F)(F)F)o3)cc2)cc1: 0.11
- COc1cc(-c2ccc(C)cc2)ccc1O[C@H](C)Cn1cc(-c2ccc(F)cc2)nn1: 1.21
- Nn1c(-c2cccc(F)c2)nc2ccccc2c1=O: 1.67
- COc1cc(-c2ccc(C(C)=O)cc2)ccc1O[C@H](C)Cn1cc(-c2ccc(F)cc2)nn1: 1.46
- COC(=O)c1cn(C[C@@H](C)Oc2ccc(Br)cc2OC)nn1: 1.09

# get_value(readout= log10 IC50, system= UniProtKB P00921) for `Nn1c(-c2ccc(Cl)cc2)nc2ccccc2c1=O` 1.45

Hi! What's the reported log10 IC50 for `Nn1c(-c2ccc(F)cc2)nc2ccccc2c1=O` on UniProtKB P00921? 1.26

So what log10 IC50 did `COc1ccc(-c2ccc(O[C@H](C)Cn3cc(-c4ccc(F)cc4)nn3)c(OC)c2)cc1` get with UniProtKB P00921? 1.11

----------
Target or system Carbonic anhydrase 2 (Bos taurus); metric IC50; compiled from varied reports.
Be sure to follow the number with its unit.

In the examples that follow, each entry is paired with its recorded IC50.
- COc1cc(-c2ccc(C=O)cc2)ccc1O[C@H](C)Cn1cc(-c2ccc(F)cc2)nn1: 22.4 µM
- COc1cc(Br)ccc1O[C@H](C)Cn1cc(-c2ccc(N)cc2)nn1: 13.8 µM
- Nn1c(-c2ccccc2)nc2ccccc2c1=O: 53.6 µM

Param readout= IC50; system= Carbonic anhydrase 2 (Bos taurus); entry= `COc1cc(Br)ccc1O[C@H](C)Cn1cc(-c2ccc(F)cc2)nn1` ; returns value. 20.4 µM

Lab request: please report IC50 under test system Carbonic anhydrase 2 (Bos taurus) for `Nn1c(-c2ccccc2Cl)nc2ccccc2c1=O` 10.7 µM
